Here, each record is paired with measured pEC50 data.
# assay target: T1, human DLL4 extracellular domain (human, UniProt Q9NR61 27-529)
# T1 construct: purified recombinant ECD; biotin-labelled or 6xHis-tagged depending on the assay; also called huDLL4 ECD; hu DLL4 ECD
# T1 sequence (Q9NR61 27-529 limits assumed): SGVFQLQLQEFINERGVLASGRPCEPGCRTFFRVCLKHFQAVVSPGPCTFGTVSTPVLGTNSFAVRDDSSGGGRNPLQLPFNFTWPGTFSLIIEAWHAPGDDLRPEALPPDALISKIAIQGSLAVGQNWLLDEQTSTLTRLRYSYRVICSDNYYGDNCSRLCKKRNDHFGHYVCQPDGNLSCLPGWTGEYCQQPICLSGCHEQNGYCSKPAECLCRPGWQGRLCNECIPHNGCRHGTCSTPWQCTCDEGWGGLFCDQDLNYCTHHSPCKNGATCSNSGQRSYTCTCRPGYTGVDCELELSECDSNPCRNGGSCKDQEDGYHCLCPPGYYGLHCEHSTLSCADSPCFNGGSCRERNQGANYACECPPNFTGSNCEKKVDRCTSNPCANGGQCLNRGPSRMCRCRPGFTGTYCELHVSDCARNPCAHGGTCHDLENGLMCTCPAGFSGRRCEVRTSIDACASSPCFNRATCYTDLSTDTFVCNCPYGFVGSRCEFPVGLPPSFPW
# protocol text: competition ELISA vs Notch-1 Fc
# Experimental: Plates were then washed 3 times with wash buffer (PBS, 0.05% Tween-20) and blocked with 200 μl/well blocking buffer (D-PBS, 1% BSA, 1 mM CaCl₂, 0.05% Tween-20) for 1 hour at 25° C. […] After a final wash, plates were developed using 100 μl/well substrate (TMB Sigma #T8665), and the reaction was stopped using 100 μl/well 1N HCl, and the absorbance was read at 450 nm. […]
pEC50: −log10 of the molar value.
measured metric: pEC50

- h38H12.12 (antibody, V domains shown, humanized IgG; also called VH.1b/VL.2a 38H12) VH: EVQLVESGGGVVQPGRSLRLSCAASGFTFSNYGMYWVRQAPGKGLEWVAFISHGGGITYYRDSVKGRFTISRDNSKNTLYLQMNSLRAEDTAVYYCAALNWELGIDYWGQGTMVTVSS VL: EIVMTQSPATLSVSPGERATLSCRASEDIYSNLAWYQKKPGQSPRLLIYAANRLQDGVPARFSGSGSGTEYTLTISSLQSEDFAVYFCLQGSKFPLTFGQGTKLEIKR: 8.49
- h38H12.9 (antibody, V domains shown, humanized IgG; also called VH.1b/VL.1 38H12) VH: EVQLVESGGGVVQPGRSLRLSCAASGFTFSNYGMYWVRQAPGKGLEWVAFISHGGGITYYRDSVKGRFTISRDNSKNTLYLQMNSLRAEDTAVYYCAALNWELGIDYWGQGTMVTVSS VL: DIQMTQSPSSLSASVGDRVTITCRASEDIYSNLAWYQQKPGKAPKLLIYAANRLQDGVPSRFSGSGSGTDFTLTISSLQPEDFATYYCLQGSKFPLTFGQGTKLEIKR: 8.38
- h38H12.14 (antibody, V domains shown, humanized IgG; also called VH.2a/VL.1a 38H12) VH: EVQLVESGGGLVQPGGSLRLSCAASGFTFSNYGMYWIRQAPGKGLEWVAFISHGGGITYYRDSVKGRFTISRDNSKSTLYLQMNSLRAEDTAVYHCAALNWELGIDYWGQGTMVTVSS VL: DIQMTQSPSSLSASVGDRVTITCRASEDIYSNLAWYQKKPGKSPKLLIYAANRLQDGVPSRFSGSGSGTDYTLTISSLQPEDFATYFCLQGSKFPLTFGQGTKLEIKR: 8.23
- h38H12.8 (antibody, V domains shown, humanized IgG; also called VH.1a/VL.2a 38H12) VH: EVQLVESGGGVVQPGRSLRLSCAASGFTFSNYGMYWIRQAPGKGLEWVAFISHGGGITYYRDSVKGRFTISRDNSKSTLYLQMNSLRAEDTAVYHCAALNWELGIDYWGQGTMVTVSS VL: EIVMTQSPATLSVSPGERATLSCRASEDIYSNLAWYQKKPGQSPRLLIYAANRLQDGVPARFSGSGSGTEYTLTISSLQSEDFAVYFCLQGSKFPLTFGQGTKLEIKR: 8.08
- h38H12.15 (antibody, V domains shown, humanized IgG; also called VH.2a/VL.1b 38H12) VH: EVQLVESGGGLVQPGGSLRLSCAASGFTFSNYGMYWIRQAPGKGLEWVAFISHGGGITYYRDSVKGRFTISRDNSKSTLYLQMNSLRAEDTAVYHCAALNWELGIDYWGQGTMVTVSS VL: DIQMTQSPSSLSASVGDRVTITCRASEDIYSNLAWYQQKPGKAPKLLIYAANRLQDGVPSRFSGSGSGTDYTLTISSLQPEDFATYYCLQGSKFPLTFGQGTKLEIKR: 8.24

Origin of values: patent US20110217237A1
